Protocol Text: Psilocin-d10 pharmacokinetics in female beagle dogs, oral gavage and intravenous (bolus)
Measurement Conditions: female, beagle, dog, plasma, po, 1 mg/kg, AUC0-t, female dog plasma, single oral gavage 1.00 mg/kg, Median (N=3)
Endpoint Name: AUC(0-t)
Could you write the number and then its unit?

Query: Would you kindly share the measured AUC(0-t) for [2H]C([2H])([2H])N(C([2H])([2H])[2H])C([2H])([2H])C([2H])([2H])c1c[nH]c2cccc(O)c12 ?
Response: 399 ng·h/mL

----------
Protocol Text: Psilocin-d10 pharmacokinetics in female beagle dogs, oral gavage and intravenous (bolus)
Measurement Conditions: female, beagle, dog, plasma, iv, 0.2 mg/kg, C0, female dog plasma, single IV bolus 0.20 mg/kg, animal 60F
Endpoint Name: C0 (ng/mL)
The answer is to be given in ng/mL; state only the numeric part.

Query: # query: C0 of entry [2H]C([2H])([2H])N(C([2H])([2H])[2H])C([2H])([2H])C([2H])([2H])c1c[nH]c2cccc(O)c12 [Compound I-3]
Response: 69.5
